Experimental Endpoint: melting point

- Structure String: "COc1cc(COc2nn(C)cc2C(=O)N(C)OC)ccc1OCc1nc(-c2ccccc2)oc1C"
  Test Result: "138 to 139 °C"
- Structure String: "CCCCCCCCOc1ccc(C(=O)c2ccccc2)c(O)c1Cc1cc(C)cc(-n2nc3ccccc3n2)c1O"
  Test Result: "124 to 126 °C"
- Structure String: "CNc1nc(-c2ccc(Cl)c(Cl)c2)cs1"
  Test Result: "220 to 221 °C"
- Structure String: "CCC(CC)c1ccc(C#N)c2nc(Nc3c(C)cc(Cl)cc3OC)n(C)c12"
  Test Result: "223 to 225 °C"
- Structure String: "CC(=O)NCCCCn1cnc2c(N)nc(C)c(C)c21"
  Test Result: "217 to 219 °C"

----------
- Compound: "Cc1nc(N)nc(CCCCCCCCCCO)c1O"
  melting point: "103 to 104 °C"
- Compound: "CCCc1cc(NCc2ccc3c(c2)OCO3)nc(SCC#N)n1"
  melting point: "92 to 94 °C"
- Compound: "COc1nc2ccc3c(c2o1)C(CCNC(C)=O)CC3 (stereo unspecified)"
  melting point: "126 to 128 °C"
- Compound: "O=C(O)CCN1C(=O)CSC1=S"
  melting point: "155 to 156 °C"
- Compound: "O=C(O)Cc1cc(F)cc(Cc2nc3c(F)c(F)cc(F)c3s2)c1"
  melting point: "139 to 142 °C"
- Compound: "COc1ccc(-c2nc(Sc3ccncc3)[nH]c2-c2ccc(OC)cc2)cc1"
  melting point: "177 to 179 °C"
- Compound: "CC1COC(c2cnc(C3=NC(C)(C(C)C)C(=O)N3)c(C(=O)O)c2)O1 (stereo unspecified)"
  melting point: "50 to 62 °C"
- Compound: "OCc1cc(Cl)c(F)cn1"
  melting point: "50 to 52 °C"
- Compound: "CC(CCc1ccc(O)cc1)NCC(O)c1cccc(Cl)c1 (stereo unspecified)"
  melting point: "103 to 110 °C"
- Compound: "CNC(=O)C(Cc1ccc(OC)cc1)NC(=O)C(CC(C)C)C(CC(=O)NCC(=O)O)SC(C)=O (stereo unspecified)"
  melting point: "188 to 192 °C"
- Compound: "CN(C)C1Cc2cccc3ccn(c23)C1 (stereo unspecified)"
  melting point: "114 to 115 °C"

----------
Measured melting point values are reported for all entries that follow.

- Compound: "COc1c(N2CCC(O)C(CC(C)C)C2)c(F)cc2c(=O)c(C(=O)O)cn(C3CC3)c12 (stereo not given)"
  melting point: "190 to 192 °C"
- Compound: "CC(C)(C)c1ccc(S(=O)(=O)Oc2ccc(C(C)(C)c3ccc(OS(=O)(=O)c4ccc(C(C)(C)C)cc4)cc3)cc2)cc1"
  melting point: "124 to 127 °C"
- Compound: "CS(=O)(=O)C(=C1CN(C(c2ccccc2)c2ccccc2)C1)c1cccc(Cl)c1Cl"
  melting point: "201 °C"
- Compound: "Cc1nn(CCN)c(C)c1Cc1cc(Cl)cc(Cl)c1"
  melting point: "70 to 72 °C"
- Compound: "O=C(NCCO)c1[nH]c2ccc(Cl)cc2c1S(=O)(=O)c1ccccc1"
  melting point: "198 to 200 °C"
- Compound: "CC(C)(N)CNC(=O)Cc1ccccc1"
  melting point: "68 to 71 °C"
- Compound: "O=C(Oc1ccccc1)C(=O)Oc1ccccc1"
  melting point: "132 to 135 °C"
- Compound: "CC(=O)C(=Cc1ccc(S(C)(=O)=O)cc1)C(C)=O"
  melting point: "139 to 140 °C"
- Compound: "COC(=O)C[C@H](O)C[C@@H](O)C=Cc1c(-c2ccc(F)cc2)c(-c2ccc(F)cc2)c(C(=O)OCc2ccccc2)n1C(C)C"
  melting point: "105 to 107 °C"
- Compound: "CNC(=O)Oc1ccc2ccccc2c1"
  melting point: "119 °C"
